Assay: NCI Yeast Anticancer Drug Screen. Data for the mec2-1 strain (AID 157)
Details: S. cerevisiae mec2-1 strain, at 50.0 µM, hits give high values
The panel holds about 79,000 compounds, 15% with a hit somewhere; the sample as a whole holds those more often.
measurementType: growth inhibition (%)
Lab book: enter the figure in %, no units written.

# count of solved cases: 2
Can you share its growth inhibition? I mean this compound: O=c1nc(NCC23CC4CC(CC(C4)C2)C3)ccn1C1OC(CO)C(O)C1O (stereo not drawn)
-0.95

O=C(O)c1ccc2c3ccc(C(=O)O)c4c(C(=O)O)ccc(c5ccc(C(=O)O)c1c25)c43 , same question.
-33.5

Continuing:
Could you share which growth inhibition value was measured for Cc1c(C)c(C)c(CC2(C)CSC2)c(CC2(C)CSC2)c1C ?
-20.2

* * *

Assay: NCI Yeast Anticancer Drug Screen. Data for the cln2 rad14 strain (AID 165);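 note: 0% = growth equal to vehicle treated cultures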
Conditions: S. cerevisiae cln2 rad14 strain, at 50.0 µM, hits give high values
Method: Growth inhibition of yeast strains with defined genetic alterations is measured as a screen for potential anti-cancer activity. Selected strains with alterations in DNA damage repair or cell cycle control were exposed to compounds and growth inhibition was measured relative to vehicle treated controls. The strain used in this assay is cln2 rad14
The panel holds about 79,000 compounds, 15% with a hit somewhere; the sample as a whole holds those more often. Calls of active or inactive are those of the source. Cut-off read from the data, not from the text of the source: active = growth inhibition above about 70%; inactive = the rest.
measurementType: growth inhibition

// solved cases for growth inhibition follow
May I ask what growth inhibition has been recorded for Cc1cccc(C(C#N)C(=O)CCCC(=O)Nc2ccccc2[N+](=O)[O-])c1 (centres undefined) ?
-36.6% (inactive)

Could you do the same for CC1CN(C(=O)C2CCCN(CCc3ccccc3)C2)CC(C)O1 (centres undefined) , please?
14.8% (inactive)

Field entry: O=C(c1ccc(Cl)cc1)C(C(c1ccccc1[N+](=O)[O-])N1CCCCC1)N1CCCCC1 (centres undefined)
-30.8% (inactive)

Similarly, CC(=O)NNc1ncc(C(=O)/C=C/c2ccccc2C)s1 ?
29.1% (inactive)

Further cases:
Can you share its growth inhibition? I mean this molecule: CCOC(=O)c1ccc(N=c2sc3ccccc3nc2Nc2ccc(C(=O)OCC)cc2)cc1
34% (inactive)

What about Nc1ncnc2nc(N3CCN(CCO)CC3)[nH]c12 ?
-29.5% (inactive)

Now the same for Nc1cn[nH]c(=O)n1
13.3% (inactive)

Next molecule: CCOc1c(F)ccc(F)c1-c1c(F)ccc(F)c1OCC
2.4% (inactive)

* * *

Measured growth inhibition of individual entries
Assay: NCI Yeast Anticancer Drug Screen. Data for the bub3 strain (AID 167)
Conditions: S. cerevisiae bub3 mutant strain, at 50.0 µM, hits give high values
This is part of a sample that, as a whole, favours compounds with a hit. Of some 79,000 tested, about 15% had one in any assay.
Hi! Could you send only the number? It should be in %, unit omitted.

Reference set, count: 5
Dear colleague, I am looking for the recorded growth inhibition of the following compound: CCCCCCCCCCCCCCCCCCNC(=O)NCc1ccncc1
-0.35

Try this compound too: CCCCn1nnnc1N
17.8

And what about the compound COc1ccc(C2CC(c3c(C)nn(-c4ccccc4)c3-c3ccc(C)cc3O)=NN2c2ccccc2)cc1 (stereo unspecified) ?
-3

And ClC(Cl)(Cl)C1CCC2CCCC21 (stereo unspecified) ?
-9.1

Cool, now CC(=O)OCC(COC(C)=O)C(C)=O
4.65

Others:
I have this compound here, Cc1c(CCOC=O)c(=O)[nH]c2nncn12 , and I need its recorded growth inhibition.
-9.65

Again, but for C/C=C/C(=O)OCCOc1ccccc1-c1ccccc1
25.2

Can you handle C/C(C(=O)O)=C(\C)c1ccccc1 next?
2.1

Note, next up: COC(=O)C1C(O)CCC2CN3CCc4c([nH]c5cccc(OC)c45)C3CC21 (stereo unspecified)
2

Okay, and O=C(Nc1nc2ccccc2n1Cc1ccc(Cl)cc1)NC12CC3CC(CC(C3)C1)C2 ?
27.5

Moving on to the next compound: CC1CCOC(/C=C/c2ccccc2)O1 (stereo unspecified)
40.8

Can you handle CCc1ccc(OC(=O)CCl)cc1 next?
-3.4

Moving on to the next compound: Nc1cccc2ccc(Cl)nc12
16.3
